Tested on: HL-60(TB) leukemia
Experiment: NCI-60 one-dose screen, 48 h (100 = growth as untreated, 0 = no growth, -100 = all killed)
Conditions: 10 µM unless noted
Method: Growth inhibition of the HL-60(TB) human tumor cell line is measured as a screen for anti-cancer activity. Cells are grown in 96 well plates and exposed to the test compound for 48 hours. Compounds are tested at a single concentration, which is 10^-5 M for most compounds. The reported endpoint is percent growth (GI% or GIPRCNT), where numbers from 0 - 100% represent growth inhibition, and numbers from -100% - 0 represent cell death. For example, a value of 40 represents 60% growth inhibition. […]
About 83,000 compounds went through this panel and 20% of them were active in at least one assay; those are over-represented in the sample as a whole. Calls of active or inactive are those of the source. How the source made its calls: active means growth percent below 10; inactive means the rest.
Recorded growth for the following compounds
Measurement Label: growth

1) CCCC(=O)OCC1OC(n2cnc3c(=S)nc(N)[nH]c32)C(OC(=O)CCC)C1OC(=O)CCC (stereo not drawn)    13.2% (inactive)
2) O=C(/C=C/c1ccc(Br)cc1)c1ccccc1    81.5% (inactive)
3) CCCCCCCCCCCCNC(=S)N/N=C/c1ccc(Cl)c(Cl)c1    116% (inactive)
4) C=C1CC[C@@H]2[C@](C)(COC(C)=O)[C@H](OC(C)=O)CC[C@@]2(C)[C@@H]1CC(Nc1ccc(S(=O)(=O)NC(C)=O)cc1)C1=CCOC1=O (stereo partly drawn)    -31.1% (active)
5) C[N+]1=C(/C=C/c2ccc(O)c3ncccc23)C(C)(C)c2ccccc21    32.5% (inactive)
6) COc1ccc(/C=N\Nc2nc(SCC(C)C)nc(-c3ccc(OC)cc3)c2C#N)cc1    35.8% (inactive)
7) COc1ccc(/C=C2\COc3ccc(O)cc3C2=O)cc1    -33.1% (active)
8) COc1cccc(/C=C2\Oc3cc(OCCN4CCCC4)ccc3C2=O)c1    99.6% (inactive)
9) COc1ccc(/C=c2\nc3n(-c4ccccc4)c4nc5c6c(sc5c(=N)n4n-3c2=O)CCCC6)cc1    101% (inactive)
10) CCOC(=O)c1c(C)c2c(n1C)CSc1cc(S(=O)(=O)c3ccccc3)c(=O)[nH]c1-2    25% [100 µM] (inactive)
11) Nc1n[nH]c2cccc(C#Cc3cccc(NC(=O)c4cc(N5CCOCC5)cc(C(F)(F)F)c4)c3)c12    10.6% (inactive)
12) C/C(=C\c1cnc(C)s1)[C@@H]1C[C@@H]2O[C@@H]2CCC[C@H](C)[C@H](O)[C@@H](C)C(=O)C(C)(C)[C@@H](O)CC(=O)O1    0.639% (active)
13) CCCCCCCCCCCCNCCCc1ccccc1    32.3% (inactive)
14) O=Cc1ccc(F)cc1    103% (inactive)
15) COc1ccc(C/C(C)=C(\c2ccc(Cl)cc2)c2ccc(OCCCN(C)C)cc2)cc1    69.9% (inactive)
16) COc1cc(NCCCN(CC(C)C)C2CCCC2)c2ncccc2c1    22.5% (inactive)
17) COc1ccc(-c2cc(/C=C/C(=O)c3ccc(N)cc3)[nH]n2)cc1    -23% (active)
18) O=C(c1ccc(O)cc1)c1ccc(O)cc1    117% (inactive)
19) Clc1ccc(-c2nc(NCCc3ccccc3)nc3c(NCCc4ccccc4)cnn23)cc1    88.8% (inactive)
20) Oc1ccc(-c2nc3ccc4[nH]ncc4c3c3c2CCCC3)c2cccnc12    -8.83% (active)
21) CCOC(=O)C(=O)CC(=O)c1ccccc1    95.5% (inactive)
22) CCCCOCCOCCOCc1cc2c(cc1Br)OCO2    108% (inactive)
23) C[C@@H]1C(=O)N(C[C@@H](Cc2ccccc2)NC(=O)OCc2ccccc2)[C@]1(Cc1ccccc1)C(=O)OCc1ccccc1    13.1% (inactive)
24) Cn1cc(C(=O)c2nc(-c3c[nH]c4ccc(Br)cc34)no2)c2cc(Br)ccc21    82.9% (inactive)
25) C[C@H](c1nc2ccc(C#N)cc2[nH]1)[C@H]1CC[C@H]2[C@@H]3CCC4=CC(=O)CC[C@]4(C)[C@H]3CC[C@]12C    56.3% (inactive)
26) Cc1cc(Nc2ccc(Cl)cc2)nc(NCCCNc2ccnc3cc(Cl)ccc23)n1    -76.8% (active)
27) O=C(N/N=C/c1c[nH]c2ccccc12)c1cc(-c2ccccc2)on1    73.4% (inactive)
28) COc1cc(/C=C/C(=O)c2ccc(NC(=O)CSc3nnc(-c4cc(OC)c(OC)c(OC)c4)n3-c3ccccc3)cc2)cc(OC)c1OC    6.87% (active)
29) O=C1c2ccc3c4c(ccc(c24)C(=O)N1CCNCc1ccccc1)C(=O)N(CCNCc1ccccc1)C3=O    -34.6% (active)
30) O=C(N=Nc1c(O)[nH]c2ccccc12)Nc1ccc(Cl)cc1    38.9% (inactive)
31) O=C(c1c[nH]c2ccccc12)C(Sc1nc2ccccc2c(=O)[nH]1)c1ccccc1 (stereo not drawn)    93.1% (inactive)
32) CCNC(=S)n1nc(SC)c(C(=O)OCC)c1N    100% (inactive)
33) C[C@H]1[C@H](C)CC[C@]2(C(=O)NCCNCCN)CC[C@]3(C)C(=CC[C@@H]4[C@@]5(C)CCC(=O)C(C)(C)[C@@H]5CC[C@]43C)[C@H]12    -58.5% (active)
